Test system: Staphylococcus aureus MW2 (mecA+)
Assay: normalized DsRed fluorescence (growth of mecA+ strain) (fraction of control range); higher = more growth of mecA+ strain
Conditions: compound concentration: 150 uM; cefoxitin: subinhibitory; fluorescent label: DsRed
measure-name: normalized DsRed fluorescence

INSERT INTO results (compound, experimental_value) VALUES
  ('Cc1cc(=O)[nH]c(=S)[nH]1', 0.716),
  ('Cc1nc2n(c(=O)c1CCN1CCC(c3noc4cc(F)ccc34)CC1)CCCC2O (stereo not drawn)', 0.72),
  ('Cc1cccc(C)c1NC(=O)C1CCCCN1C (stereo not drawn)', 0.7);

---

System: Staphylococcus aureus MW2 (mecA+)
Experiment: normalized DsRed fluorescence (growth of mecA+ strain) (fraction of control range); higher = more growth of mecA+ strain
Settings: compound concentration: 150 uM; cefoxitin: subinhibitory; fluorescent label: DsRed
Quick rule: normalized DsRed fluorescence of at least 0.6 means Y, below that means N.

INSERT INTO assay_data (molecule, tested_target, class_assignment) VALUES
  ('COc1ccc2cc([C@H](C)C(=O)O)ccc2c1 [Naproxen (Aleve)]', 'Staphylococcus aureus MW2 (mecA+)', 'Y'),
  ('COc1ccc(C[C@@H]2c3cc(OC)c(OC)cc3CC[N@+]2(C)CCC(=O)OCCCCCOC(=O)CC[N@@+]2(C)CCc3cc(OC)c(OC)cc3[C@H]2Cc2ccc(OC)c(OC)c2)cc1OC [Cisatracurium besylate (Nimbex)]', 'Staphylococcus aureus MW2 (mecA+)', 'Y'),
  ('C1CCC(C(CC2CCCCN2)C2CCCCC2)CC1 (configuration not stated)', 'Staphylococcus aureus MW2 (mecA+)', 'N'),
  ('OC(CCN1CCCCC1)(c1ccccc1)C1CCCCC1 (configuration not stated)', 'Staphylococcus aureus MW2 (mecA+)', 'Y');
